- Test system: ALK
- Assay notes: In vitro transcription-translation (IVTT) reporter assay, ALK test sequence
- Format: biochemical
- Condition label: HeLa S3 lysate, sfGFP/mCherry ratio, 2 hrs at 30° C.
- Description: All reporter constructs have been cloned into the pT7CFE1-CHis plasmid (ThermoFisher #88860) using Gibson assembly procedures (NEB #E2611L). […] All reporters are designed to be inserted at the MCS to include a red fluorescent protein (mCherry), P2A self-cleaving peptide which releases the preceding mCherry protein product, and a fusion open reading frame containing a 3×FLAG epitope, a peptide sequence of interest (TEST), and green fluorescent protein (sfGFP). […]
Reported metric: IC50

COc1ccc(C[C@H]2NC[C@H](O)[C@H]2OC(=O)Cc2cnccn2)cc1 [V187088] ... < 10 µM
C#Cc1ccc(C[C@H]2NC[C@H](O)[C@H]2OC(C)=O)cc1 [V186940] ... < 10 µM
CC(=O)O[C@@H]1[C@@H](O)CN[C@@H]1Cc1ccc(C#N)cc1 [V187006] ... < 10 µM
COc1ccc(C[C@H]2NC[C@H](O)[C@H]2OC(=O)C2CN(CC3COC3)C2)cc1 [V186772] ... > 30 µM

Field: next compound
[ask] For the compound COc1ccc(C[C@H]2NC[C@H](O)[C@H]2OC(=O)C2(N)CCCC2)cc1 [V186782] , what IC50 is on record?
[reply] > 30 µM
